# TARGET_ENTITY: T1, BAFF (Sino biological, 10056-HNCH) (UniProt Q9Y275 134-285, biotinylated in the blocking ELISA (site not stated))
# T1 construct: also called BLyS
# ASSAY: ELISA, BAFF coated at 1 ug/mL, anti-human IgG-HRP
Recorded pEC50 for the following binders
In textbook form, pEC50 equals minus log to base ten of the concentration in mol/L.

// TACI-9-1-Fc (Fc fusion) STSCRKEQGKFYDHLLRDCISCASICGQHPKQCAYFCENKLDKTHTCPPCPAPEAEGAPSVFLFPPKPKDTLMISRTPEVTCVVVDVSHEDPEVKFNWYVDGVEVHNAKTKPREEQYNSTYRVVSVLTVLHQDWLNGKEYKCKVSNKALPSSIEKTISKAKGQPREPQVYTLPPSRDELTKNQVSLTCLVKGFYPSDIAVEWESNGQPENNYKTTPPVLDSDGSFFLYSKLTVDKSRWQQGNVFSCSVMHEALHNHYTQKSLSLSPGK : pEC50 value = 9.42

pEC50 for TACI-9-5-Fc (Fc fusion) SLSCRKEQGEFYDHLLRDCISCASICGQHPKQCAYFCENKLDKTHTCPPCPAPEAEGAPSVFLFPPKPKDTLMISRTPEVTCVVVDVSHEDPEVKFNWYVDGVEVHNAKTKPREEQYNSTYRVVSVLTVLHQDWLNGKEYKCKVSNKALPSSIEKTISKAKGQPREPQVYTLPPSRDELTKNQVSLTCLVKGFYPSDIAVEWESNGQPENNYKTTPPVLDSDGSFFLYSKLTVDKSRWQQGNVFSCSVMHEALHNHYTQKSLSLSPGK is 9.84
